system: SNB-19 CNS; test: NCI-60 one-dose screen, 48 h (100 = growth as untreated, 0 = no growth, -100 = all killed); details: 10 µM unless noted
The panel holds about 83,000 compounds, 20% with a hit somewhere; the sample as a whole holds those more often. Active and inactive are the calls of the source. Rule for the calls: active = growth percent below 10; inactive = the rest.
Known growth of a selection of molecules

Prompt: Sample O=C(Nc1cccc(Cl)c1)Nc1nc2cc([N+](=O)[O-])ccc2o1 — what was its growth?
Response: 31.3% (inactive)

Prompt: Record: CCOC(=O)c1cccc(NC2=C(Cl)C(=O)c3nc(C)ccc3C2=O)c1
Response: 90.8% (inactive)

Prompt: Record: CNc1sc(S(=O)(=O)NC)nc1S(=O)(=O)c1ccc(C)cc1
Response: 96% (inactive)

Prompt: Record: CN1CCN(CCNc2nc(-c3cccc(NS(=O)(=O)c4cccc5c(N(C)C)cccc45)c3)cs2)CC1
Response: 75.5% (inactive)

---
Prompt: Sample CS(=O)(=O)c1ccc(/C(=N/N=C(N)N)c2ccc(Cl)cc2)cc1 — what was its growth?
Response: 90.3% (inactive)

Prompt: Record: CCOP(=O)(OCC)OC[C@]12CCC(C)(C)C[C@H]1C1=CC[C@@H]3[C@@]4(C)CC[C@H](OP(=O)(OCC)OCC)C(C)(C)[C@@H]4CC[C@@]3(C)[C@]1(C)CC2
Response: 71.2% (inactive)

Prompt: Record: Cc1ccc(C)c(NC2=C(Cl)C(=O)c3nc(C)ccc3C2=O)c1
Response: 17.1% (inactive)

Prompt: Record: Cc1[nH]c(C(=O)Nc2ccc(S(=O)(=O)N3CCCCC3)cc2OCCOCCOCCOCCOCCOCCOCCOCCOCCOc2cc(S(=O)(=O)N3CCCCC3)ccc2NC(=O)c2[nH]c(C)c3c2CCCCC3=O)c2c1C(=O)CCCC2
Response: 33.3% (inactive)

Prompt: Record: Cn1cc(-c2cc3ncnc(Nc4ccc(CC(=O)Nc5nc(C(C)(C)C)cs5)cc4)c3s2)cn1
Response: 94.5% (inactive)

Prompt: Record: CCC1=Cc2c(OC)cccc2OC12C=Cc1c(OC)cccc1O2 (configuration not stated)
Response: 24.8% (inactive)

Prompt: Record: O=C(CSc1cc[n+](CCCCO)c2ccccc12)n1ccc2ccccc21
Response: 100% (inactive)

Prompt: Record: O=c1nc(Nc2ccc([N+](=O)[O-])cc2O)sc2ccccc12
Response: 28.7% (inactive)

Prompt: Record: CCN(CC)S(=O)(=O)c1ccc(-c2nc(C(Cl)Cl)nc3cc(-c4ccc(F)cc4)nn23)cc1
Response: 40.2% (inactive)

Prompt: Record: CCN1CCN(c2ccc(NC(=O)Nc3ccc4c(ccn4-c4ccnc(C(=O)NC)c4)c3)cc2C(F)(F)F)CC1
Response: 81% (inactive)

---

tested on: A549/ATCC NSCLC; assay: NCI-60 one-dose screen, 48 h; details: 10 µM unless noted
About 83,000 compounds went through this panel and 20% of them were active in at least one assay; those are over-represented in the sample as a whole. Calls of active or inactive are those of the source. The calls were made as follows: active = growth percent below 10; inactive = the rest.
Output constraint: value belongs to true (1) for active, false (0) for inactive

Reference set, count: 10
Prompt: Outcome? Cc1ccccc1N1CCN(C2=C(Cl)C(=O)c3ncccc3C2=O)CC1
Response: false (0)

Prompt: Record: O=C(CSc1nc2ccccc2c(=O)n1-c1ccccc1)N/N=C/c1ccc(Oc2ccc(Cl)cc2)cc1
Response: false (0)

Prompt: Record: CN1CCN(Cc2ccc(/C=N/Nc3ccnc4cc(Cl)ccc34)cc2)CC1
Response: false (0)

Prompt: Record: C#CCn1cc(/C=N/Nc2nc(-c3ccc(Br)cc3)cs2)c2ccccc21
Response: false (0)

Prompt: Record: C#CCOc1cccc(/C(N)=N/C(N)=N/c2nc3ccccc3s2)c1
Response: false (0)

Prompt: Record: COc1cc2c3c(cc4c5c(ccc4c3c1OC)OCO5)N(CCN(C)C)C2=O
Response: true (1)

Prompt: Record: C/C(=N/N)c1nnn(-c2ccc(Br)cc2)c1C
Response: false (0)

Prompt: Record: CN1CCN(c2ccc(Nc3nc(NCCCNS(=O)(=O)c4ccc(C(F)(F)F)cc4)c4sccc4n3)cc2)CC1
Response: true (1)

Prompt: Record: Cn1cc(-c2cc3ncnc(Nc4ccc(CC(=O)Nc5nc(C(C)(C)C)cs5)cc4)c3s2)cn1
Response: false (0)

Prompt: Record: COc1ccccc1Cn1cc(C#N)c(N)c1C(=O)c1ccc(Br)cc1
Response: false (0)

---
Prompt: Outcome? Brc1ccc(-c2cc(-c3ccc4c(c3)OCCO4)n[nH]2)s1
Response: false (0)

Prompt: Record: O=C(/C=C/c1csc(Br)n1)NO
Response: false (0)

---

System: ACHN renal
Assay: NCI-60 one-dose screen, 48 h
Conditions: 10 µM unless noted
Method: Growth inhibition of the ACHN human tumor cell line is measured as a screen for anti-cancer activity. Cells are grown in 96 well plates and exposed to the test compound for 48 hours. Compounds are tested at a single concentration, which is 10^-5 M for most compounds. The reported endpoint is percent growth (GI% or GIPRCNT), where numbers from 0 - 100% represent growth inhibition, and numbers from -100% - 0 represent cell death. For example, a value of 40 represents 60% growth inhibition. […]
The panel holds about 83,000 compounds, 20% with a hit somewhere; the sample as a whole holds those more often. Activity calls are given as the source filed them. The calls were made as follows: active = growth percent below 10; inactive = the rest.
Output constraint: value belongs to active, inactive

Prompt: Outcome? CNC(=O)c1cc(Oc2ccc3c(c2)sc2nc(-c4ccc(N(C)C)cc4)cn23)ccn1
Response: inactive

Prompt: Record: Cc1ccc(S(=O)(=O)c2nc(-c3ccc(F)cc3)oc2S(C)(=O)=O)cc1
Response: active

Prompt: Record: CC(=O)c1c([Si](C)(C)C)c2cc(C#N)ccn2c1C(=O)c1ccc(Br)cc1
Response: inactive

Prompt: Record: COc1ccc(CC(C)=C(c2ccc(OCCN3CCCC3)cc2)c2ccc(OCCN3CCCC3)cc2)cc1
Response: active

Prompt: Record: CC1(C)C=Cc2cc(/C(N)=N/C(N)=N/c3nc4ccccc4s3)ccc2O1
Response: inactive

Prompt: Record: COc1ccc2c(c1)C=CC1(O2)Oc2ccc(OC)cc2C=C1C (centres undefined)
Response: inactive

Prompt: Record: CNC(=O)c1cc(N2CCc3cc(NC(=O)Nc4ccc(N5CCN(C)CC5)c(C(F)(F)F)c4)ccc32)ccn1
Response: inactive

Prompt: Record: N#C/C(=C\c1ccc(-c2ccc(Cl)c(Cl)c2)o1)C(=O)Nc1ncc(Cc2ccc(Cl)cc2)s1
Response: inactive

Prompt: Record: Cc1ccc2c(n1)C(=O)C(Cl)=C(Nc1cccc(C(=O)OC(C)(C)C)c1)C2=O
Response: inactive

Prompt: Record: O=S(=O)(NCCCNc1nccc(-c2[nH]c(-c3ccccc3)nc2-c2ccc(F)c(O)c2)n1)c1ccc(C(F)(F)F)cc1
Response: inactive

Prompt: Record: Cc1ccc(C(=O)CSc2nnc(-c3ccc(-c4ccc(Cl)cc4)nc3C)o2)cc1
Response: inactive

---

test system: K-562 leukemia; assay: NCI-60 one-dose screen, 48 h (100 = growth as untreated, 0 = no growth, -100 = all killed); details: 10 µM unless noted
About 83,000 compounds went through this panel and 20% of them were active in at least one assay; those are over-represented in the sample as a whole.
Known growth of a selection of compounds
Entry rule: numbers only, all in %.

Prompt: Sample COc1ccc(C2CC(c3cccc(OCCCCOc4cccc(C5=NOC(c6ccc(OC)cc6)C5)c4)c3)=NO2)cc1 (configuration not stated) — what was its growth?
Response: 45.1

Prompt: Record: CC(C)(C)c1cc(NC(=O)Nc2ccc(-c3cn4c5c(sc4n3)CCc3cn(CCCN4CCCCC4)cc3-5)cc2)no1
Response: 3.01

Prompt: Record: O=c1[nH][nH]c(-c2ccc(F)cc2)c1-c1nc2ccccc2s1
Response: 98.1

Prompt: Record: Cc1ccc(OCc2occc2C(=O)N2CCOCC2)cc1
Response: 98.9

---
Prompt: Sample CC(=C(c1ccc(OCCCN(C)C)cc1)c1ccc(OCCCN(C)C)cc1)c1ccc(Cl)cc1 — what was its growth?
Response: -13.5

Prompt: Record: CC[C@]12C=CCN3CC[C@]4(C(=C(C(=O)OC)C1)Nc1cc5c(cc14)[C@@H]1[C@H](O5)[C@@H](O)[C@@]4(CC)CC(C(=O)OC)=C5Nc6cc(O)ccc6[C@@]56CCN1C46)C32 (some centres not stated)
Response: 3.36

Prompt: Record: Cc1ccc(C(=O)Nc2ccc(CNCCN3CCNCC3)c(C(F)(F)F)c2)cc1C#Cc1cnc2cccnn12
Response: -22.2

Prompt: Record: N#C/C(=C\c1cccc2c1OCO2)C(=O)Nc1sc2c(c1C#N)CCCC2
Response: 104

Prompt: Record: CCCC[n+]1ccc(SCC(=O)n2ccc3ccccc32)c2ccccc21
Response: 66.9

Prompt: Record: COC(=O)[C@@H](Cc1c[nH]c2ccccc12)NC(=O)CCCCOc1cc(O)c2c(=O)cc(-c3ccccc3)oc2c1
Response: 83.6

Prompt: Record: CC(C)(C)Nc1nc2c(OCCc3ccccc3)cccn2c1-c1cccc(Oc2ccccc2)c1
Response: 15.7

Prompt: Record: CC(=O)Nc1ccccc1-c1nc2ccccc2s1
Response: 113

Prompt: Record: O=C(Nc1cccc(C(F)(F)F)c1)N1CCN(c2cc(-c3cn(-c4ccccc4)nc3-c3cccc(O)c3)ccn2)CC1
Response: 30.6

Prompt: Record: N#Cc1nc(-c2ccccc2)oc1N1CCC(C2(C(F)(F)F)N=N2)CC1
Response: 90

Prompt: Record: N#Cc1cnc2ccc(-c3cnc4n[nH]nc4c3)cc2c1N1CCc2cc(F)c(Cl)cc21
Response: 28.1

Prompt: Record: CCCNNC(=O)c1ccc(-c2ccc(NC(=O)CCCCCCC(=O)N[C@H](C(=O)N3C[C@H](O)C[C@H]3C(=O)N[C@@H](C)c3ccc(-c4scnc4C)cc3)C(C)(C)C)cc2)cc1
Response: 15.5

Prompt: Record: C#C[C@]1(O)CC[C@H]2[C@@H]3CC=C4c5sc(NCc6ccccc6)nc5CC[C@]4(C)[C@H]3CC[C@@]21C
Response: 1.46
